tested on: L1210 leukemia ip in BDF1 mice, survival T/C; experiment: NCI In Vivo Anticancer Drug Screen. Data for tumor model L1210 Leukemia (intraperitoneal) in B6D2F1 (BDF1) mice; conditions: endpoint: mean survival time; dose: 25.0 mg/kg/injection; schedule: Q04DX002 (ip); vehicle: Klucel (hydroxypropylcellulose) (HPC); higher = longer survival
Toxic doses and inconclusive results are not listed.
I'd appreciate it if you could supply T/C values for the items below.

// query T/C value for entry NC(N)=Nc1ccc([N+](=O)[O-])cc1
98 % of control

# T/C lookup, item CCCCCCCCCCCCOP(=S)(S)OCCCCCCCCCCCC (tested in a mixture with another compound)
87 % of control

Need T/C, item O=CC(CCN1CCCCC1)(CCN1CCCCC1)c1cccc2ccccc12
107 % of control

Fill in the blank: the reported T/C of NC(=S)N/N=C/c1ccc(Cl)s1 is ____.
95 % of control

Reported T/C, molecule CCC(SC#N)C(CC)SC#N (stereo unspecified) : ____
93 % of control

Please give the measured T/C for this molecule: CC(C)(C)C1CSC(c2ccccc2)SC1 (stereo unspecified)
92 % of control
